Assay: Pharmacokinetic test in mice
Format: in vivo
Details: mouse; male ICR mice, intravenous administration (2.5 mg/kg), plasma; read-out: Vdss
PARAMETER MEASURED: Vd (L/kg)
Just the number please, in L/kg, no unit attached.

O=C(N[C@H]1CC[C@@H](COc2coc(CN3Cc4ccc(C(F)(F)F)cc4C3)cc2=O)CC1)C1COC1	1.17
[2H]C([2H])([2H])n1cc(C(=O)N[C@H]2CC[C@H](CCc3coc(CN4Cc5ccc(C(F)(F)F)cc5C4)cc3=O)CC2)cn1	0.966
O=C(N[C@H]1CC[C@H](COc2coc(CN3Cc4ccc(C(F)(F)F)cc4C3)cc2=O)CC1)C1CC1	1.61
O=C(N[C@H]1CC[C@H](/C=C/c2coc(CN3Cc4ccc(C(F)(F)F)cc4C3)cc2=O)CC1)C1CC(F)(F)C1	1.54

Field Vd (entry O=C(N[C@H]1CC[C@H](/C=C/c2coc(CN3Cc4ccc(C(F)(F)F)cc4C3)cc2=O)CC1)[C@H]1CC1(F)F ) reads 1.73

Field Vd (entry O=C(N[C@H]1CC[C@H](/C=C/c2coc(CN3Cc4ccc(C(F)(F)F)cc4C3)cc2=O)CC1)C1CC1 ) reads 1.75

Field Vd (entry CS(=O)(=O)N1CC(OC(=O)N2CCC(COc3coc(CN4Cc5ccc(C(F)(F)F)cc5C4)cc3=O)CC2)C1 ) reads 1.81

Field Vd (entry [2H]C([2H])([2H])n1cc(C(=O)N[C@H]2CC[C@H](/C=C/c3coc(CN4Cc5ccc(C(F)(F)F)cc5C4)cc3=O)CC2)cn1 ) reads 0.86

Field Vd (entry [2H]C([2H])([2H])C(=O)N[C@H]1CC[C@H](COc2coc(CN3Cc4ccc(C(F)(F)F)cc4C3)cc2=O)CC1 ) reads 1.19

Field Vd (entry Cn1cc(C(=O)N[C@H]2CC[C@H](COc3coc(CN4Cc5ccc(C(F)(F)F)cc5C4)cc3=O)CC2)cn1 ) reads 0.557

Field Vd (entry O=C(N[C@H]1CC[C@H](/C=C/c2coc(CN3Cc4ccc(C(F)(F)F)cc4C3)cc2=O)CC1)[C@@H]1CC1(F)F ) reads 1.63

###

The reader will find reported inhibition at 1 µM values listed item by item below.
Tested on: pregnenolone level in NCI-H295R cells
Experiment: cells
Type: cell-based
Details: Homo sapiens, 72 h, read-out: Pregnenolone level in H295R (Elisa) inh.% 1000 nM
Experimental: 2. […] The H295R cells were purchased from ATCC (CRL-2128), the cell complete medium contained DMEM: F12+ 10% FBS +0.00625 mg/ml insulin+0.00625 mg/mL transferrin+6.25 ng/mL selenium+1.25 mg/mL BSA+0.00535 mg/mL linoleic acid, and the cells were cultured in a 37°C, 5% CO2 incubator. […] Determination was carried out according to the operation instructions for pregnenolone Elisa kit (Antibodies-A73791), and the OD450 signal was read. […]
Just the number please, in %, no unit attached.

Known results for molecules:
[2H]C([2H])([2H])C(=O)N[C@H]1CC[C@H](/C=C/c2coc(CN3Cc4ccc(C(F)(F)F)cc4C3)cc2=O)CC1	59.1
O=C(N[C@H]1CC[C@H](/C=C/c2coc(CN3Cc4ccc(C(F)(F)F)cc4C3)cc2=O)CC1)[C@@H]1CC1(F)F	64.9
O=C(N[C@H]1CC[C@H](/C=C/c2coc(CN3Cc4ccc(C(F)(F)F)cc4C3)cc2=O)CC1)C1CC(F)(F)C1	64.5
O=C(N[C@H]1CC[C@H](CCc2coc(CN3Cc4ccc(C(F)(F)F)cc4C3)cc2=O)CC1)C1CC(F)(F)C1	66
O=C(N[C@H]1CC[C@H](/C=C/c2coc(CN3Cc4ccc(C(F)(F)F)cc4C3)cc2=O)CC1)[C@H]1CC1(F)F	67
CS(=O)(=O)N1CC(OC(=O)N2CCC(COc3coc(CN4Cc5ccc(C(F)(F)F)cc5C4)cc3=O)CC2)C1	75.2

Field inhibition at 1 µM (entry COC1CN(CC(=O)N2CCC(/C=C/c3coc(CN4Cc5ccc(C(F)(F)F)cc5C4)cc3=O)CC2)C1 ) reads 50.5

Field inhibition at 1 µM (entry O=C(OC1CC1)N1CCC(COc2coc(CN3Cc4ccc(OC5CC5)cc4C3)cc2=O)CC1 ) reads 67.5
